Tested on: HepG2
ASSAY SUMMARY: Antiproliferative activity against human HepG2 cells after 48 hrs by MTT assay
Type: functional, cell-based
EXPERIMENTAL CONDITIONS: HepG2, 48 h
Catalogue of IC50 values

Some compounds with known IC50 results, for comparison:
[[record]]
input_smiles = "O=C(NCCc1c[nH]c2ccc(Cl)cc12)c1cc(Br)ccc1O"
experimental_value = "> 100 µM"

[[record]]
input_smiles = "Cc1cccc(C(=O)NCCc2c[nH]c3ccccc23)c1O"
experimental_value = "> 100 µM"

[[record]]
input_smiles = "O=C(NCCc1c[nH]c2ccc(Br)cc12)c1ccc(Cl)cc1O"
experimental_value = "92 µM"

[[record]]
input_smiles = "Cc1ccc(C(=O)NCCc2c[nH]c3ccccc23)c(O)c1"
experimental_value = "> 100 µM"

[[record]]
input_smiles = "Cc1cccc(C(=O)NCCc2c[nH]c3ccc(Br)cc23)c1O"
experimental_value = "45 µM"

[[record]]
input_smiles = "COc1ccc2[nH]cc(CCNC(=O)c3cc(Cl)ccc3O)c2c1"
experimental_value = "75 µM"


INPUT: Recorded IC50 for "O=c1[nH]cc(F)c(=O)[nH]1" , please?
OUTPUT: 68 µM

INPUT: Recorded IC50 for "O=C(NCCc1c[nH]c2ccc(Cl)cc12)c1ccc(Cl)cc1O" , please?
OUTPUT: 90 µM

INPUT: Recorded IC50 for "O=C(NCCc1c[nH]c2ccc(F)cc12)c1cc(Br)ccc1O" , please?
OUTPUT: > 100 µM

INPUT: Recorded IC50 for "COc1ccc2[nH]cc(CCNC(=O)c3cc(Br)ccc3O)c2c1" , please?
OUTPUT: > 100 µM

INPUT: Recorded IC50 for "O=C(NCCc1c[nH]c2ccc(F)cc12)c1cc(Cl)ccc1O" , please?
OUTPUT: > 100 µM

---

Tested on: HepG2
ASSAY SUMMARY: Antiproliferative activity against human HepG2 cells after 48 hrs by MTT assay
Type: functional, cell-based
EXPERIMENTAL CONDITIONS: HepG2, 48 h
Catalogue of IC50 values

Some compounds with known IC50 results, for comparison:
[[record]]
input_smiles = "COc1ccc2[nH]cc(CCNC(=O)c3ccc(Cl)cc3O)c2c1"
measured_metric = "IC50"
experimental_value = "> 100 µM"

[[record]]
input_smiles = "O=C(NCCc1c[nH]c2ccc(Cl)cc12)c1ccccc1O"
measured_metric = "IC50"
experimental_value = "> 100 µM"

[[record]]
input_smiles = "O=C(NCCc1c[nH]c2ccc(Br)cc12)c1cc(Br)ccc1O"
measured_metric = "IC50"
experimental_value = "> 100 µM"

[[record]]
input_smiles = "O=C(NCCc1c[nH]c2ccccc12)c1ccccc1O"
measured_metric = "IC50"
experimental_value = "> 100 µM"

[[record]]
input_smiles = "O=C(NCCc1c[nH]c2ccccc12)c1ccc(Cl)cc1O"
measured_metric = "IC50"
experimental_value = "> 100 µM"

[[record]]
input_smiles = "Cc1ccc2[nH]cc(CCNC(=O)c3cccc(C)c3O)c2c1"
measured_metric = "IC50"
experimental_value = "64 µM"

[[record]]
input_smiles = "COc1ccc2[nH]cc(CCNC(=O)c3ccc(C)cc3O)c2c1"
measured_metric = "IC50"
experimental_value = "80 µM"

[[record]]
input_smiles = "O=C(NCCc1c[nH]c2ccccc12)c1cc(Br)ccc1O"
measured_metric = "IC50"
experimental_value = "> 100 µM"

[[record]]
input_smiles = "O=C(NCCc1c[nH]c2ccccc12)c1cc(Cl)ccc1O"
measured_metric = "IC50"
experimental_value = "> 100 µM"

[[record]]
input_smiles = "COc1ccc2[nH]cc(CCNC(=O)c3cccc(C)c3O)c2c1"
measured_metric = "IC50"
experimental_value = "85 µM"


INPUT: Recorded IC50 for "Cc1ccc2[nH]cc(CCNC(=O)c3cc(Cl)ccc3O)c2c1" , please?
OUTPUT: > 100 µM

INPUT: Recorded IC50 for "Cc1ccc2[nH]cc(CCNC(=O)c3ccccc3O)c2c1" , please?
OUTPUT: > 100 µM
